system: Oryctolagus sp.; settings: developmental; development
For each entry below, report its log10(NOAEL) value.
Plainly stated, the numbers are log10 of NOAEL given in mg/kg-day.

Query: Please indicate recorded log10(NOAEL) of CON(C)C(=O)Nc1ccc(Cl)c(Cl)c1 [Linuron] measured with Oryctolagus sp..
Result: 1.00

Query: Please indicate recorded log10(NOAEL) of Cc1cc(Cl)ccc1OCCCC(=O)O [Thitrol] measured with Oryctolagus sp..
Result: 0.70

Query: Please indicate recorded log10(NOAEL) of ClC1C(Cl)C(Cl)C(Cl)C(Cl)C1Cl (stereo not drawn) [Lindane] measured with Oryctolagus sp..
Result: 0.70

Query: Please indicate recorded log10(NOAEL) of O=C(Nc1ccccc1)Nc1cnns1 [Thidiazuron] measured with Oryctolagus sp..
Result: 1.40

Query: Please indicate recorded log10(NOAEL) of CN1COCN(Cc2cnc(Cl)s2)/C1=N/[N+](=O)[O-] [Thiamethoxam] measured with Oryctolagus sp..
Result: 1.70

Query: Please indicate recorded log10(NOAEL) of COC(=O)N(OC)c1ccccc1COc1ccn(-c2ccc(Cl)cc2)n1 [Pyraclostrobin] measured with Oryctolagus sp..
Result: 0.48

Query: Please indicate recorded log10(NOAEL) of CS(=O)(=O)c1ccc(C(=O)C2C(=O)CCCC2=O)c(Cl)c1COCC(F)(F)F [Tembotrione] measured with Oryctolagus sp..
Result: 0.00

Query: Please indicate recorded log10(NOAEL) of CC(C)N(C(=O)CCl)c1ccccc1 [Propachlor] measured with Oryctolagus sp..
Result: 1.76
